- tested_system: BTK (Homo sapiens, UniProt Q06187)
- Construct: High control=Cell group with added DMSO and without compound, indicating microplate readings without BTK degradation; endogenous in cells; host or cells: TMD-8
- Sequence (Q06187 whole entry): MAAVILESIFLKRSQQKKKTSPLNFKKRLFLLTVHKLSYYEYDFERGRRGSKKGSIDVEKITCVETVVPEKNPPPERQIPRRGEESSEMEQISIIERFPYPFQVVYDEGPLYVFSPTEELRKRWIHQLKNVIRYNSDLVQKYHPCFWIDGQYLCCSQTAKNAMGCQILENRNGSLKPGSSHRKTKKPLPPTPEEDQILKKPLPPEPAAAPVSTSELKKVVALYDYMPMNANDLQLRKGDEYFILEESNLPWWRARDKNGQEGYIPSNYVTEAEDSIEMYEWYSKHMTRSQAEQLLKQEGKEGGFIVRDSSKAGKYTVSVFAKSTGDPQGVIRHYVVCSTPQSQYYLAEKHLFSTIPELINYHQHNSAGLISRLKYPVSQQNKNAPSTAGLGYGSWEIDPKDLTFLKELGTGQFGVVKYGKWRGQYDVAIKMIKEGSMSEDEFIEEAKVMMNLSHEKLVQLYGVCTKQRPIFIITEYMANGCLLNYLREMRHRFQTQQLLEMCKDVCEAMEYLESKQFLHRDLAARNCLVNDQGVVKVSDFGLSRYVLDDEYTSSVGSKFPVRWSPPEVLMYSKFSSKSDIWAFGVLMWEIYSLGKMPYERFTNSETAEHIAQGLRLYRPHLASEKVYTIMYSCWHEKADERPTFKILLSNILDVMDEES
- method_notes: BTK degradation in TMD-8 cells (HTRF assay)
- Type: cell-based
- test_settings: 6 h treatment, IC50 (DC50) of BTK degradation
measure: DC50 (nM)

Please review the following examples before continuing.
| compound | measure | units_of_measure | observed_result |
| --- | --- | --- | --- |
| Cc1cc(-c2ncnc3[nH]c4cc(C5CCN(C6CC(c7ccc([C@@H]8CCC(=O)NC8=O)cc7)C6)C5)ccc4c23)ccc1[C@@H](C)NC(=O)c1nc(C(C)(C)C)no1 (stereo partly shown) [Example 21] | DC50 | nM | 0.609 |
| Cc1c([C@@H](C)NC(=O)c2noc(C(C)(C)C)n2)ccc(-c2ncnc3[nH]c4cc(N5CCC(CN6CCC(c7ccc(C8CCC(=O)NC8=O)cc7)CC6)CC5)ccc4c23)c1F (stereo partly shown) [Example 36] | DC50 | nM | 0.804 |

I: Cc1cc(-c2ncnc3[nH]c4cc(N5CCN([C@H]6C[C@H](c7ccc(NC8CCC(=O)NC8=O)cc7)C6)CC5)ccc4c23)ccc1[C@@H](C)NC(=O)c1nc(C2(C)CC2)no1 (stereo partly shown) [Example 116]
II: Cc1c([C@@H](C)NC(=O)c2noc(C(C)(C)C)n2)ccc(-c2ncnc3[nH]c4cc(N5CCN(C6CCN(c7cccc(C8CCC(=O)NC8=O)c7)CC6)CC5)ccc4c23)c1F (stereo partly shown) [Example 34]
III: Cc1cc(-c2ncnc3[nH]c4cc(N5CCN(CCc6cccc7c6C6(CC6)C(=O)N7C6CCC(=O)NC6=O)CC5)ccc4c23)ccc1[C@@H](C)NC(=O)c1nc(C2(C)CC2)no1 (stereo partly shown) [Example 124]
IV: Cc1cc(-c2ncnc3[nH]c4cc(N5CCN(C6CC(c7ccc([C@H]8CCC(=O)NC8=O)cc7)C6)CC5)ccc4c23)c(F)cc1[C@@H](C)NC(=O)c1nc(C2(C)CC2)no1 (stereo partly shown) [Example 96]
V: Cc1c([C@@H](C)NC(=O)c2noc(C(C)(C)C)n2)ccc(-c2ncnc3[nH]c4cc(N5CCN(Cc6cccc7c6C(C)(C)C(=O)N7C6CCC(=O)NC6=O)CC5)ccc4c23)c1F (stereo partly shown) [Example 84]
// sort entries: DC50, high to low Provide the ranking by listing each label in its place in the requested order.
V, IV, II, III, I
(V: 8.15 nM, IV: 2.98 nM, II: 1.23 nM, III: 0.838 nM, I: 0.509 nM)

a: COc1cc2c(cc1N1CCN(CC3CCN(c4ccc(N5CCC(=O)NC5=O)cc4)CC3)CC1)[nH]c1ncnc(-c3ccc([C@@H](C)NC(=O)c4nc(C5(C)CC5)no4)c(C)c3)c12 [Example 52]
b: Cc1cc(-c2ncnc3[nH]c4cc(C5=CCN(CC6CCN(c7ccc(N8CCC(=O)NC8=O)cc7)CC6)C5)ccc4c23)ccc1[C@@H](C)NC(=O)c1nc(C(C)(C)C)no1 [Example 10]
Of the two listed items, a and b , which carries the larger DC50 figure? Please respond with the label that marks your chosen entry.
b
(b: 1.51 nM, a: 0.361 nM)

====

- tested_system: BTK (Homo sapiens, UniProt Q06187)
- Construct: High control=Cell group with added DMSO and without compound, indicating microplate readings without BTK degradation; endogenous in cells; host or cells: TMD-8
- method_notes: BTK degradation in TMD-8 cells (HTRF assay)
- Assay type: cell-based
- test_settings: 6 h treatment, IC50 (DC50) of BTK degradation
measure: DC50 (pM)

| compound | tested_system | units_of_measure | observed_result |
| --- | --- | --- | --- |
| Cc1cc(N2CCC(CN3CCN(c4ccc5c(c4)[nH]c4ncnc(-c6ccc([C@@H](C)NC(=O)c7noc(C(C)(C)C)n7)c(C)c6F)c45)CC3)CC2)ccc1N1CCC(=O)NC1=O | BTK (Homo sapiens, UniProt Q06187) | pM | 309 |
| Cc1cc(-c2ncnc3[nH]c4cc(N5CCC6(CC5)CCN([C@H]5C[C@H](c7ccc([C@@H]8CCC(=O)NC8=O)cc7)C5)CC6)ccc4c23)ccc1[C@@H](C)NC(=O)c1nc(C(C)(C)C)no1 | BTK (Homo sapiens, UniProt Q06187) | pM | 1250 |
| Cc1cc(-c2ncnc3[nH]c4cc(N5CCN(CC6CCN(c7ccc(N8CCC(=O)NC8=O)cc7)CC6)CC5)c(C)cc4c23)ccc1[C@@H](C)NC(=O)c1nc(C(C)(C)C)no1 | BTK (Homo sapiens, UniProt Q06187) | pM | 1220 |
| COc1cc2c(cc1N1CCN(CC3CCN(c4ccc(N5CCC(=O)NC5=O)cc4)CC3)CC1)[nH]c1ncnc(-c3cc(C)c([C@@H](C)NC(=O)c4nc(C(C)(C)C)no4)cc3F)c12 | BTK (Homo sapiens, UniProt Q06187) | pM | 414 |
| Cc1cc(-c2ncnc3[nH]c4cc(N5CCC6(CCN(CC7CCN(c8ccc(N9CCC(=O)NC9=O)cc8)CC7)CC6)CC5)ccc4c23)ccc1[C@@H](C)NC(=O)c1nc(C(C)(C)C)no1 | BTK (Homo sapiens, UniProt Q06187) | pM | 1890 |
| COc1cc2c(cc1N1CCN(C3CC(c4ccc(N[C@H]5CCC(=O)NC5=O)cc4)C3)CC1)[nH]c1ncnc(-c3cc(C)c([C@@H](C)NC(=O)c4nc(C5(C)CC5)no4)cc3F)c12 (stereo partly shown) | BTK (Homo sapiens, UniProt Q06187) | pM | 768 |

I: COc1cc2c(cc1N1CCN(C3CC(c4ccc([C@@H]5CCC(=O)NC5=O)cc4)C3)CC1)[nH]c1ncnc(-c3ccc([C@@H](C)NC(=O)c4nc(C(C)(C)C)no4)c(C)c3)c12 (stereo partly shown)
II: Cc1cc(-c2ncnc3[nH]c4nc(C5CCN(CC6CCN(c7ccc(N8CCC(=O)NC8=O)cc7)CC6)CC5)ccc4c23)ccc1[C@@H](C)NC(=O)c1nc(C(C)(C)C)no1
III: Cc1cc(-c2ncnc3[nH]c4cc(C5CCN(CC6CCN(c7ccc(N8CCC(=O)NC8=O)cc7)CC6)CC5)ccc4c23)ccc1CNC(=O)c1nc(C(C)(C)C)no1
IV: COc1cc2c(cc1N1CCN(C3CC(c4ccc([C@@H]5CCC(=O)NC5=O)cc4)C3)CC1)[nH]c1ncnc(-c3ccc([C@@H](C)NC(=O)c4noc(C(C)(C)C)n4)c(C)c3F)c12 (stereo partly shown)
Arrange the 4 entries by DC50 so the values rise. List the labels in the requested order.
III, II, I, IV

====

- tested_system: BTK (Homo sapiens, UniProt Q06187)
- Construct: High control=Cell group with added DMSO and without compound, indicating microplate readings without BTK degradation; endogenous in cells; host or cells: TMD-8
- method_notes: BTK degradation in TMD-8 cells (HTRF assay)
- Assay type: cell-based
- test_settings: 6 h treatment, IC50 (DC50) of BTK degradation
measure: DC50 (nM)

Worked set:
| molecule | measure | units_of_measure | observed_result |
| --- | --- | --- | --- |
| Cc1cc(-c2ncnc3[nH]c4cc(N5CCN(C6CC(c7ccc([C@@H]8CCC(=O)NC8=O)cc7)C6)CC5)ccc4c23)c(F)cc1[C@@H](C)NC(=O)c1nc(C2(C)CC2)no1 (some centres unmarked) | DC50 | nM | 0.86 |
| Cc1cc2c(cc1N1CCN(CC3CCN(c4ccc(N5CCC(=O)NC5=O)cc4)CC3)CC1)[nH]c1ncnc(-c3cc(CO)c([C@@H](C)NC(=O)c4nc(C(C)(C)C)no4)cc3F)c12 | DC50 | nM | 2.12 |
| Cc1cc(-c2ncnc3[nH]c4cc(N5CCN([C@H]6C[C@@H](c7ccc(N[C@@H]8CCC(=O)NC8=O)cc7)C6)CC5)ccc4c23)ccc1[C@@H](C)NC(=O)c1nc(C2(C)CC2)no1 | DC50 | nM | 1.73 |
| Cc1cc(-c2ncnc3[nH]c4cc(C5CCN(CCCOc6ccc(NC7CCC(=O)NC7=O)cc6)CC5)ccc4c23)ccc1CNC(=O)c1nc(C(C)(C)C)no1 (centres unmarked) | DC50 | nM | 2.15 |
| Cc1cc(-c2ncnc3[nH]c4cc(N5CCN(CC6CCN(c7ccc(N8CCC(=O)NC8=O)cc7)CC6)CC5)ccc4c23)ccc1[C@@H](C)NC(=O)c1nc(C(C)(C)C)no1 | DC50 | nM | 0.394 |
| Cc1cc(-c2ncnc3[nH]c4cc(-c5ccn(CC6CCN(c7ccc(N8CCC(=O)NC8=O)cc7)CC6)c5)ccc4c23)ccc1[C@@H](C)NC(=O)c1nc(C(C)(C)C)no1 | DC50 | nM | 9.78 |
| Cc1cc(-c2ncnc3[nH]c4cc(N5CCN([C@H]6C[C@H](c7ccc(N[C@@H]8CCC(=O)NC8=O)cc7)C6)CC5)ccc4c23)ccc1[C@@H](C)NC(=O)c1nc(C2(C)CC2)no1 | DC50 | nM | 0.981 |
| Cc1cc(-c2ncnc3[nH]c4cc(C5CCN(CC6CCN(c7ccc(N8CCC(=O)NC8=O)cc7)CC6)CC5)cnc4c23)ccc1[C@@H](C)NC(=O)c1nc(C(C)(C)C)no1 | DC50 | nM | 0.395 |

I: Cc1c([C@@H](C)NC(=O)c2nc(C3(C)CC3)no2)ccc(-c2ncnc3[nH]c4cc(N5CCN(C6CC(c7ccc([C@@H]8CCC(=O)NC8=O)cc7)C6)CC5)ccc4c23)c1F (some centres unmarked)
II: Cc1cc(-c2ncnc3[nH]c4cc(N5CCN(CC6CCN(c7ccc(N8CCC(=O)NC8=O)cc7)CC6)CC5)ccc4c23)c(F)cc1[C@@H](C)NC(=O)c1nc(C(C)(C)C)no1
III: COc1cc2c(cc1N1CCN([C@H]3C[C@@H](c4ccc(O[C@@H]5CCC(=O)NC5=O)cc4)C3)CC1)[nH]c1ncnc(-c3ccc([C@@H](C)NC(=O)c4nc(C(C)(C)C)no4)c(C)c3)c12
IV: COc1cc2c(cc1N1CCN(C3CC(c4ccc([C@H]5CCC(=O)NC5=O)cc4)C3)CC1)[nH]c1ncnc(-c3ccc([C@@H](C)NC(=O)c4nc(C(C)(C)C)no4)c(C)c3)c12 (some centres unmarked)
Sequence the entries by DC50, beginning with the highest number. Answer with the labels in sequence, matching the requested order.
I, III, II, IV
